Test: NCI Yeast Anticancer Drug Screen. Data for the rad50 strain (AID 155);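 also: 0% = growth of vehicle-only cultures of the same strain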
Assay Conditions: S. cerevisiae rad50 strain growth inhibition; at 1.2 µM; hits give high values
This is part of a sample that, as a whole, favours compounds with a hit. Of some 79,000 tested, about 15% had one in any assay.
Property Name: growth inhibition (%)
Output spec: scalar in %, unitless text.

Example cases with answers are listed next.
> print(dat)
                                   compound  assay.result
1   C=C(C)[C@@H]1CCc2c(O)c(O)c(=O)cc(C)c2C1           -10
2                       CCOC(=O)c1csc(Br)n1            -5
3            C/C(=N\NC(=S)NC1CCCC1)c1ccccn1            -5
4  CCOC(=O)C(NC(=O)CC)(N1CCN(c2cc3c(cc2F)c(=O)c(C(=O)O)cn3C2CC2)CC1)C(F)(F)F (configuration not stated)             0
5            Cc1ccc2occ/c(=N\Nc3ccccc3)c2c1             5

Exercise: Tell me the measured growth inhibition of CCOC(=O)C1=C(C)NC(C)=C(C(=O)OCC)C1c1ccc(C)cc1 , please.
Key: 30

Exercise: Tell me the measured growth inhibition of CCN(CC)CC(O)C1CCC(c2ccccc2)CC1 (configuration not stated) , please.
Key: 5

Exercise: Tell me the measured growth inhibition of CCOc1ccc(C(=O)CCC(=O)O)c(C)c1 , please.
Key: -2

Exercise: Tell me the measured growth inhibition of O=[N+]([O-])c1c(/C=N/Nc2ccccc2)oc(-c2ccc3c(c2)OCO3)c1-c1ccc2c(c1)OCO2 , please.
Key: -1

Exercise: Tell me the measured growth inhibition of CC1C(C#N)(C#N)C(C#N)=C(N)C1(Cl)[N+](=O)[O-] (configuration not stated) , please.
Key: 4

Exercise: Tell me the measured growth inhibition of N#CC(=C1C=CC(=NO)C=C1)c1ccccc1 , please.
Key: 4

Exercise: Tell me the measured growth inhibition of O=C(/C=C\c1ccc([N+](=O)[O-])o1)Nc1ccc(Cl)cc1 , please.
Key: 38

Exercise: Tell me the measured growth inhibition of CCOC(=O)[C@]1(Br)CC[C@@]1(Br)C(=O)OCC , please.
Key: -8

Exercise: Tell me the measured growth inhibition of C/C(=N\NC(=S)NNC(=S)N(C)c1ccccc1)c1ccccn1 , please.
Key: -9

Exercise: Tell me the measured growth inhibition of Clc1cc(Cc2ccc(N=C/C=C/c3ccccc3)c(Cl)c2)ccc1N=C/C=C\c1ccccc1 , please.
Key: 13

Exercise: Tell me the measured growth inhibition of N#C/C(=C/N1C(=O)/C(=C/c2ccc([N+](=O)[O-])cc2)SC1=S)c1nc2ccccc2s1 , please.
Key: -2
